Hi there, I'd appreciate the recorded IC50 for every entry that follows.
- test_target: FAK (Homo sapiens)
- Sequence (Q05397 whole entry): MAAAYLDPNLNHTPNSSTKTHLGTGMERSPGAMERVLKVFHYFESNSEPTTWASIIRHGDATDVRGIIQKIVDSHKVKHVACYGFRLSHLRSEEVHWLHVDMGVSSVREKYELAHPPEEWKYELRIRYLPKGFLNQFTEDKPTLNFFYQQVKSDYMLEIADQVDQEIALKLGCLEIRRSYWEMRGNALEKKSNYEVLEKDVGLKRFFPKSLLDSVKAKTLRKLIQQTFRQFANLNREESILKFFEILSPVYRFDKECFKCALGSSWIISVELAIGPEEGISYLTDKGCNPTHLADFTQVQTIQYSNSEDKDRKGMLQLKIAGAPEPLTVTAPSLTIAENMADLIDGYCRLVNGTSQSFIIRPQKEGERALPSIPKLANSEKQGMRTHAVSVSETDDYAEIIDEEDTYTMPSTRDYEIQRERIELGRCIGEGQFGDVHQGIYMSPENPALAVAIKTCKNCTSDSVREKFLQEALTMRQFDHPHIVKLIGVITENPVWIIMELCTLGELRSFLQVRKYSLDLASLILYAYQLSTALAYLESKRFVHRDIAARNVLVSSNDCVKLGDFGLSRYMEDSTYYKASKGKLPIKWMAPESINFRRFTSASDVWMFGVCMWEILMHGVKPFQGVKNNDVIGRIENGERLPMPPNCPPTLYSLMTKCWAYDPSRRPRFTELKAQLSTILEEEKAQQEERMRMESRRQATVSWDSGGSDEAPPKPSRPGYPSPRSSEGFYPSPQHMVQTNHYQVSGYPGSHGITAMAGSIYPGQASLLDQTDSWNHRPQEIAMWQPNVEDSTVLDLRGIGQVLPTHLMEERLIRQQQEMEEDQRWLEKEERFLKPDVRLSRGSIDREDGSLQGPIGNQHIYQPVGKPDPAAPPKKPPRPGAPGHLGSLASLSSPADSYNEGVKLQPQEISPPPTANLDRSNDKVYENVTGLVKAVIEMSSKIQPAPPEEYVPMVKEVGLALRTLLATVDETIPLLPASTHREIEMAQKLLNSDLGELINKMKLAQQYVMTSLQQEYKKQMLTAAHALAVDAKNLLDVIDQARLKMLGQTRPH
- assay_details: Cell-based capture ELISA for inhibition of FAK autophosphorylation [pY397] in MiaPaCa2 cells
- condition_details: MIA-PaCa2 cells, + 50% mouse plasma (Table 3); read-out: Mean FAK Cell Mechanistic IC50 + 50% mP MIA-PaCa2

Use these answered entries as a reference point.
[[record]]
input_smiles = "CCOP(=O)(Cc1ccc(Nc2ncc(C(F)(F)F)c(Nc3ccc(N4CCN(CC(=O)O)CC4)c4c3C(=O)N(C)C4)n2)cc1)OCC"
test_target = "FAK (Homo sapiens)"
result = "< 1000 nM"

[[record]]
input_smiles = "CN1Cc2c(c(Nc3nc(Nc4ccc(CP(=O)(OCC(F)(F)F)OCC(F)(F)F)cc4)ncc3C(F)(F)F)ccc2[C@H]2CC[C@H](O)CC2)C1=O"
test_target = "FAK (Homo sapiens)"
result = "< 1000 nM"


Query: # get_value(readout='IC50', item= CCOP(=O)(Cc1ccc(Nc2ncc(C(F)(F)F)c(Nc3ccc([C@H]4CC[C@@](C)(O)CC4)c4c3C(=O)N(C)C4)n2)cc1)OCC )
Response: < 1000 nM
